- Protocol description: Stability in human serum determined by HPLC
- Assay type: in vitro ADME
- Assay context: male, 48 h incubation, 37° C., read-out: degradation after incubation with human serum
Where a SMILES comes first, the peptide text is derived from it. [ ]: non-standard residue; d: D form.
Recorded endpoint: metabolised at 48 h, 20 μM

(Q) Record request: metabolised at 48 h, 20 μM value, item CC[C@@H](C)[C@@H](NC(=O)[C@@H](Cc1c[nH]cn1)NC(=O)[C@H]1CCCN1C(=O)[C@@H](Cc1ccccc1)NC(=O)[C@H](N)Cc1c[nH]cn1)C(=O)N[C@H](Cc1ccc(O)cc1)C(=O)N[C@@H](C(=O)N[C@H](CCCNC(=N)N)C(=O)N[C@H](CC(=O)O)C(=O)O)C(C)C [retro-inverse angiotensin-(1-9), NH2-^DH^DF^DP^DH^DI^DY^DV^DR^DD-COOH] (H-[dH][dF][dP][dH][dI][dY][dV][dR][dD]-OH)
(A) < 20%
